Kindly supply the reported BTK degradation (%) 100 nM values for the records listed here.
- system-under-test: BTK protein (Homo sapiens)
- Construct: endogenous in cells; host or cells: TMD-8 cells
- Sequence (Q06187 whole entry): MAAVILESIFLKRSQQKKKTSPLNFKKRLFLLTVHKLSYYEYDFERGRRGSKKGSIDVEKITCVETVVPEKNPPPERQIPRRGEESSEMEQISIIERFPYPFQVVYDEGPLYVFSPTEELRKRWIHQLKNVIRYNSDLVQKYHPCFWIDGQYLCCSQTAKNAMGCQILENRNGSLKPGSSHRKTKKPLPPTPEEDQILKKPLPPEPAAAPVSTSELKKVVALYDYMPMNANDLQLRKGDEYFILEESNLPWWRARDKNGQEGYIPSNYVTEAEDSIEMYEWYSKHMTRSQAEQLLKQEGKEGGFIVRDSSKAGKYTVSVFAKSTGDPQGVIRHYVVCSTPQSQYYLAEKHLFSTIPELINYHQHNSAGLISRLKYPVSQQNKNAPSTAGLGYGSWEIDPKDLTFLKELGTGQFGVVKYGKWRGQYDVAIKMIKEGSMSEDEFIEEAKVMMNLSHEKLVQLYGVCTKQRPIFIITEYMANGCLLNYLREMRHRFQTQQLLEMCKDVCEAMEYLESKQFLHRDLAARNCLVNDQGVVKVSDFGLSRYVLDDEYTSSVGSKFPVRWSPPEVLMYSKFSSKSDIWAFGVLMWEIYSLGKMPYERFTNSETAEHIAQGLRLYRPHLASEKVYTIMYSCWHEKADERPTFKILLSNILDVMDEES
- method-summary: Measurement of BTK protein degradation ability in TMD-8 cells (Western blotting)
- Assay type: cell-based
- protocol-conditions: compound 100 nM, harvested after 24 hours
Give the value in % but do not write % after it.

Query string: Observed BTK degradation (%) 100 nM on BTK protein (Homo sapiens) for Cc1cc(-c2ccnc(Nc3ccc(N4CCC(CN5CCC(c6ccc(NC7CCC(=O)NC7=O)cn6)CC5)CC4)cc3)n2)ccc1CNC(=O)N1CC(OC(C)C)C1 (stereo not shown) , please.
Result string: 100.0

Query string: Likewise for Cc1cc(-c2ccnc(Nc3ccc(N4CCN(CC5CN(c6ccc7c(n6)CN(C6CCC(=O)NC6=O)C7=O)C5)CC4)cc3)n2)ccc1CNC(=O)N1CC(OC(C)C)C1 (stereo not shown) ?
Result string: 98

Query string: And for Cc1cc(-c2ccnc(Nc3ccc(C4CCN(CC5CCN(c6ccc7c(c6)C(=O)N(C6CCC(=O)NC6=O)C7=O)CC5)CC4)cc3)n2)ccc1CNC(=O)N1CC(OC(C)C)C1 (stereo not shown) ?
Result string: 99

Query string: Further, for Cc1cc(-c2ccnc(Nc3ccc(N4CCC(CN5CCC(c6ccc(OC7CCC(=O)NC7=O)cc6)CC5)CC4)cc3)n2)ccc1CNC(=O)N1CC(OC(C)C)C1 (stereo not shown) ?
Result string: 99.5

Query string: Item: Cc1cc(-c2ccnc(Nc3ccc(N4CCN(CC5(C)CN(c6ccc7c(c6)C(=O)N(C6CCC(=O)NC6=O)C7=O)C5)CC4)cc3)n2)ccc1CNC(=O)N1CC(OC(C)C)C1 (stereo not shown)
Result string: 98

Query string: Do the same for Cc1cc(-c2ccnc(Nc3ccc(C4CCN(CC5CCN(c6cccc(N7CCC(=O)NC7=O)c6)CC5)CC4)cc3)n2)ccc1CNC(=O)c1cnn(C(C)(C)C)c1 please
Result string: 98.5

Query string: Please do the same for Cc1cc(-c2ccnc(Nc3ccc(CN4CCN(CC5CCN(c6cccc(OC7CCC(=O)NC7=O)c6)CC5)CC4)cc3)n2)ccc1CNC(=O)N1CC(OC(C)C)C1 (stereo not shown) as well.
Result string: 97.5

Query string: Can you handle Cc1cc(-c2ccnc(Nc3ccc(N4CCN(CC5CN(C(=O)c6cccc(NC7CCC(=O)NC7=O)c6)C5)CC4)cc3)n2)ccc1CNC(=O)c1cnn(C(C)C)c1 (stereo not shown) next?
Result string: 98.5

Query string: Next record, please: Cc1cc(-c2ccnc(Nc3ccc(C4CCN(CC5CCN(c6ccc(OC7CCC(=O)NC7=O)cn6)CC5)CC4)cc3)n2)ccc1CNC(=O)N1CC(OC(C)C)C1 (stereo not shown)
Result string: 99.3

Query string: Lookup Cc1cc(-c2ccnc(Nc3ccc(N4CCN(CC5CN(C(=O)c6cccc(NC7CCC(=O)NC7=O)c6)C5)CC4)cc3)n2)ccc1CNC(=O)c1cnn(C(C)(C)C)c1 (stereo not shown)
Result string: 98.0

Query string: Check Cc1cc(-c2ccnc(Nc3ccc(N4CCC(CN5CCC(c6ccc(NC7CCC(=O)NC7=O)cn6)CC5)CC4)cc3)n2)ccc1CNC(=O)c1cnn(C(C)C)c1 (stereo not shown) too.
Result string: 99.0

Query string: Now give it for Cc1cc(-c2ccnc(Nc3ccc(N4CCN(CC5CCN(CC(=O)Nc6cccc(NC7CCC(=O)NC7=O)c6)CC5)CC4)cc3)n2)ccc1CNC(=O)N1CC(OC(C)C)C1 (stereo not shown) too.
Result string: 98

Query string: Please do the same for Cc1cc(-c2ccnc(Nc3ccc(N4CCN(CC5CCN(c6cccc(N7CCC(=O)NC7=O)c6)CC5)CC4)nc3)n2)ccc1CNC(=O)c1cn(C(C)(C)C)nn1 as well.
Result string: 100.0

Query string: Thanks! And Cc1cc(-c2ccnc(Nc3ccc(N4CCN(CC5CCN(Cc6cccc(NC7CCC(=O)NC7=O)c6)CC5)CC4)cc3)n2)ccc1CNC(=O)N1CC(OC(C)C)C1 (stereo not shown) ?
Result string: 100.0

Query string: Param item: Cc1cc(-c2ccnc(Nc3ccc(N4CCC(CN5CCC(c6ccc(NC7CCC(=O)NC7=O)cc6)CC5)CC4)cc3)n2)ccc1CNC(=O)N1CC(OC(C)C)C1 (stereo not shown)
Result string: 100.0

Query string: Follow-up entry: Cc1cc(-c2ccnc(Nc3cnn(C4CCN(CC5CN(c6ccc7c(c6)C(=O)N(C6CCC(=O)NC6=O)C7=O)C5)CC4)c3)n2)ccc1CNC(=O)N1CC(OC(C)C)C1 (stereo not shown)
Result string: 99
